test_target: S. pyogenes SKKanGAS, kanamycin survival, BacTiterGlo, 6 h
test_description: S. pyogenes SKKanGAS kanamycin growth inhibitors – SKKanGAS strain, luminescence, dose confirmation, streptokinase promoter inhibitor project, dose response (AID 1902);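 also: lower survival reflects blocked streptokinase promoter driving kanamycin resistance gene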
The source made the active and inactive calls.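 The calls were made as follows: active = EC50 no more than a set limit of log units above the highest dose; inactive = the rest.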
Possible outcomes: active, inactive

O=C(NCc1ccccn1)Nc1ccc(F)c(Cl)c1 | inactive
Oc1cccc2ccc(/C=C/c3c(F)cccc3Cl)nc12 | active
COc1cc(OC)cc(C(=O)NC(=S)NNC(=O)Cc2cccs2)c1 | active
Cn1ncc2c(Nc3ccc(Br)cc3)nc(Nc3ccc(Br)cc3)nc21 | active
CCCCCCCCCCCC1=C(O)C(=O)C=C(O)C1=O | active
COc1ccc(-c2nn(-c3ccccc3)cc2/C=C/C(=O)N2CCN(c3ccccn3)CC2)cc1 | active
Cc1cccc(/C=N/NC(=O)c2ccc3c(c2)OCCO3)c1O | active
O=C(NNC(=S)NC(=O)c1cccs1)c1ccc(NC(=O)c2ccccc2)cc1 | active
Cc1cc(Nc2ccccc2)n(-c2nc3ccccc3[nH]2)n1 | active
CSCC[C@H](NC(=O)c1nn(C)c(=O)c2ccccc12)c1nc2ccccc2[nH]1 | active
O=C(O)c1ccccc1-c1ccccc1C(=O)Nc1ccc(-c2nc3cc(Cl)ccc3o2)cc1 | active
O=C(CN1C(=O)COc2ccc(S(=O)(=O)N3CCCCC3)cc21)NCc1ccc(F)cc1 | inactive
Cc1ccc(Oc2ccc3c(c2)C(=O)N(c2ccc(S(=O)(=O)Nc4nccs4)cc2)C3=O)cc1 | active
CC(C)[C@@H](C(=O)NC1CCCC1)N1C(=O)N2CCc3c([nH]c4ccccc34)[C@@]2(C)C1=O | inactive
CCOC(=O)c1[nH]c2ccc(F)cc2c1NC(=O)c1ccccc1C(=O)O | inactive
Oc1ccccc1C(Nc1nccs1)c1ccc2cccnc2c1O (configuration not stated) | active
Fc1ccc(CSc2nc3ccccc3[nH]2)c2ccccc12 | active
CCC(NC(=O)Nc1nnc(C(F)(F)F)s1)(C(F)(F)F)C(F)(F)F | active
Cc1ccc(OCC(=O)Nc2nc(-c3ccccn3)cs2)c(C)c1 | active
CC1CCN(c2ccccc2NC(=O)c2ccc(Br)o2)CC1 | active
CCOC(=O)c1cccc(NC(=S)N2CCN(c3ncc4c(=O)c(C(=O)O)cn(CC)c4n3)CC2)c1 | active
COc1ccc(-c2sc3ccc(OC)cc3c2C#CCCO)cc1 | active
